- TESTED_SYSTEM: iGluR5(Q) (Homo sapiens)
- Sequence (P39086 31-918): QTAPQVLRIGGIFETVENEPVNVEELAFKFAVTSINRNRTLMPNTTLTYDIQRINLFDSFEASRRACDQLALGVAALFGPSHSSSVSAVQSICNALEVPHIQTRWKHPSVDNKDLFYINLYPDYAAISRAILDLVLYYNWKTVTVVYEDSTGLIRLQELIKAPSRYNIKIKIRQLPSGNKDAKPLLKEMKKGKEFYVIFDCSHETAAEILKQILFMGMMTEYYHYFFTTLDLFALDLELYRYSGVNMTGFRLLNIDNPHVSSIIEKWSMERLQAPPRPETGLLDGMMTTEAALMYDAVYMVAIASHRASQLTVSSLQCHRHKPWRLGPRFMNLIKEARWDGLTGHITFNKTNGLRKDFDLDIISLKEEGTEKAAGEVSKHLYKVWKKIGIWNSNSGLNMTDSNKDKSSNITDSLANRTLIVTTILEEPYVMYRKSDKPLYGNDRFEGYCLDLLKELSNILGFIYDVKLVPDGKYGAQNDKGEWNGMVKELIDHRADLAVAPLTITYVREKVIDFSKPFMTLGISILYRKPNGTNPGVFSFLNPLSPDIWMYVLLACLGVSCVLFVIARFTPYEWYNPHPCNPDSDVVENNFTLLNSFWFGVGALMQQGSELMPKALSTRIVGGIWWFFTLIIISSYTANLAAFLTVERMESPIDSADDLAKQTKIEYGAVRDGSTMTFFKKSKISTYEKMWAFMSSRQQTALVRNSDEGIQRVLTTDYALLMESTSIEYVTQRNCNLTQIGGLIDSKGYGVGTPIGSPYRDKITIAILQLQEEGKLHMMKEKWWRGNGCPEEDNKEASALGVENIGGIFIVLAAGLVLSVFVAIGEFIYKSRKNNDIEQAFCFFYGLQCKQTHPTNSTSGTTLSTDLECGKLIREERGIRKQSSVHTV
- PROCEDURE_SUMMARY: Whole-cell voltage clamp dose-response in HEK293 cells expressing iGluR5(Q)
- ASSAY_CONTEXT: under 500 nm illumination; read-out: apparent agonist affinity (EC50)
PROPERTY_NAME: EC50 (µM)

| MOLECULE | PROPERTY_NAME | RECORDED_RESULT |
| --- | --- | --- |
| N[C@@H](CC(C/C=C/c1ccc(/N=N/c2ccccc2)cc1)C(=O)O)C(=O)O (stereo partly shown) [Compound 2] | EC50 | 9 |
